Target: Adenosine receptor A2a (Homo sapiens, UniProt P29274)
Sequence (P29274 whole entry): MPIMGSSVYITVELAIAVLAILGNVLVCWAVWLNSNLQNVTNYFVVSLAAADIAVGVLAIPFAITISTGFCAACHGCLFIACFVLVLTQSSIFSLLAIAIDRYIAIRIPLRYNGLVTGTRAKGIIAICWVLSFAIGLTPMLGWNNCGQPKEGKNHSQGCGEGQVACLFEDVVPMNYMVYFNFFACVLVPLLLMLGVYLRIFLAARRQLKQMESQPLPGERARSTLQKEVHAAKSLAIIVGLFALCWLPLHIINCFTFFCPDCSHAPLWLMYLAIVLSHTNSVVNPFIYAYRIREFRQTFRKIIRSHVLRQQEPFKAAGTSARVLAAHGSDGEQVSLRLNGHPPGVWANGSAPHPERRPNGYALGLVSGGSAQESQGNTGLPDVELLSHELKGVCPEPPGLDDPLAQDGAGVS
Test: Displacement of [3H]NECA from recombinant human A2A receptor expressed in CHO cell membranes
We label by threshold. Values of Ki strictly beneath 10 µM are yes. Values of 10 µM and up are no.

Query: Ki under 10 µM? Item: COc1ccc(-n2c(C(=O)c3sc(Nc4ccccc4)nc3C)cnc2N)cc1
Response: no

Query: Decide: Ki of COc1ccc(-n2c(C(=O)c3sc(Nc4ccccc4)nc3-c3ccccc3)cnc2N)cc1 strictly below 10 µM?
Response: yes

Query: Is it true that Ki reported for Nc1ncc(C(=O)c2sc(Nc3ccccc3)nc2-c2ccccc2)n1-c1ccc(F)cc1 is less than 10 µM?
Response: yes

Query: Quick check: does CN(C)c1nc(NC(=O)c2ccccc2)sc1C(=O)c1cnc(N)n1-c1ccc(C(F)(F)F)cc1 have Ki under 10 µM?
Response: no

Query: is_below(Ki, 10 µM) for COc1ccc(-n2c(C(=O)c3sc(N4CCOCC4)nc3-c3ccccc3)cnc2N)cc1 ?
Response: no

Query: Ki strictly < 10 µM for this molecule? CN(C)c1nc(NC(=O)c2ccccc2)sc1C(=O)c1cnc(N)n1-c1ccc(Cl)cc1
Response: no

Query: Here's an entry: Cc1ccc(-n2c(C(=O)c3sc(N4CCOCC4)nc3-c3ccccc3)cnc2N)cc1 . Is its Ki below 10 µM?
Response: no

Query: Say whether its Ki is strictly beneath 10 µM. Entry: Cc1nc(Nc2ccccc2)sc1C(=O)c1cnc(N)n1-c1ccc(Cl)cc1
Response: no

Query: Determine whether this molecule shows Ki lower than 10 µM (ties excluded): Cc1nc(Nc2ccccc2)sc1C(=O)c1cnc(N)n1-c1ccc(F)cc1
Response: yes

Query: Quick check: does Cc1ccc(Nc2nc(C)c(C(=O)c3cnc(N)n3-c3ccc(F)cc3)s2)cc1 have Ki under 10 µM?
Response: no

Query: Problem: For the molecule COc1ccc(-n2c(C(=O)c3sc(Nc4ccc(Cl)cc4)nc3C)cnc2N)cc1 , is Ki under 10 µM?
Response: no

Query: # check: Ki < 10 µM for Cc1nc(Nc2ccc(Cl)cc2)sc1C(=O)c1cnc(N)n1-c1ccc(F)cc1
Response: no

These data points were gathered from ChEMBL document CHEMBL4257492.
